Tested on: HOP-18 NSCLC
Experiment: NCI tumour cell line growth inhibition, 48 h
measuredMetric: TGI

compound	measuredMetric	resultValue
Nc1ccc(C(=O)N/C(=C\c2cccc([N+](=O)[O-])c2)c2nc3c4c(ccc3[nH]2)C(=O)c2ccccc2C4=O)cc1	TGI	> 100 µM
COc1ccc2nc3cccc(C(=O)NCCN(C)C)c3nc2c1	TGI	> 21.8 µM
Cc1ccc(S(=O)OC23CC4CC(CC(C4)C2)C3)cc1 (stereo not given)	TGI	> 100 µM
CN(C)CC1CCCC/C1=N/OC(=O)c1ccc(Cl)c(Cl)c1 (stereo not given)	TGI	> 100 µM
CC(=O)C1(O)Cc2c(O)c3c(c(O)c2C(OC2CC(N)C(O)C(C)O2)C1)C(=O)c1ccccc1C3=O (stereo not given)	TGI	0.0869 µM

---

Test system: DMS 114 small cell lung
Test: NCI tumour cell line growth inhibition, 48 h
Consider the following molecules and their measured TGI readings.

molecule	assayedTarget	TGI
COc1ccc(C2C(Cl)C(=O)N2NC(=O)Cc2ccccc2)cc1OC (stereo not given)	DMS 114 small cell lung	> 100 µM
C[N+](C)(C)CC1CCCC/C1=N\O (stereo not given)	DMS 114 small cell lung	> 100 µM
CC(=O)CC(=O)/C=C/c1cccs1	DMS 114 small cell lung	> 100 µM
c1ccc(C2[C@@H]3CCCc4ccccc4C3=NN2c2ccccc2)cc1 (stereo not given in full)	DMS 114 small cell lung	> 100 µM
NS(=O)(=O)c1ccc(NC(=O)COC(=O)c2cccc3c(=O)c4ccccc4[nH]c23)cc1	DMS 114 small cell lung	52.3 µM
NC(=O)N/N=C(/c1nc2ccc([N+](=O)[O-])cc2[nH]c1=O)C(O)c1ccco1 (stereo not given)	DMS 114 small cell lung	> 100 µM
CN(C)CC1CCCC/C1=N/OC(=O)c1ccc(Cl)c(Cl)c1 (stereo not given)	DMS 114 small cell lung	> 100 µM
CC(C)N(C(C)C)P(OCCC#N)OC1CC(n2cnc3c(=O)[nH]cnc32)OC1COC(=O)NCCCCCCNC(=O)OC(C)(C)c1ccc(-c2ccccc2)cc1 (stereo not given)	DMS 114 small cell lung	41.6 µM
COc1ccc(C(=O)O/N=C2/CCC/C2=C\c2ccccc2)cc1	DMS 114 small cell lung	> 100 µM
N#C/C(=C\c1ccccc1Br)C(=O)c1ccccc1	DMS 114 small cell lung	> 100 µM

---

Test system: SNB-19 CNS
Test: NCI tumour cell line growth inhibition, 48 h; in the data active = GI50 below about 0.43 µM; inactive = the rest
Outcomes: active, inactive

compound	assignedLabel
C#Cc1cc2c(N)c(C(=O)c3cc(OC)c(OC)c(OC)c3)[nH]c2cc1OC	inactive
CCCCCCNC(=O)Oc1ccc(/C(=C(\C)c2ccccc2)c2ccc(OCCN(CC)CC)cc2)cc1	inactive
Cc1ccc2c(c1)C(=O)c1c-2n(CCCN=[N+]=[N-])c(=O)c2cc([N+](=O)[O-])ccc12	inactive
O=C1c2ccn(CCCCN3CCC(O)CC3)c2C(=O)c2c1c(O)c1ccccc1c2O	inactive
COc1cccc(C2=C(c3cn(C)c4cccc(OC)c34)C(=O)NC2=O)c1	inactive
CC(=O)C1(O)Cc2c(O)c3c(c(O)c2C(OC2CC(N)C(O)C(C)O2)C1)C(=O)c1ccccc1C3=O (stereo not drawn)	active
CC[C@H](NC(=O)[C@H](CS(=O)(=O)CC1CC1)N[C@@H](c1ccc(F)cc1)C(F)(F)F)C(=O)C(=O)NC1CC1	inactive
COc1ccc(/C=N/N=C(\[O-])c2ccncc2)cc1F.COc1ccc(/C=N\N=C(/[O-])c2ccncc2)cc1F.[Cu+2]	inactive
